# reported_conditions: in acetone, 313.15 K
observed_property: solubility (mole fraction)

>>> reading("N#CCC(N)=O")
0.0833

###

# reported_conditions: in ethanol, 278.15 K
observed_property: solubility (mole fraction)

>>> reading("N#CCC(N)=O")
0.00558

###

# reported_conditions: in n-butanol, 298.15 K
observed_property: solubility (mole fraction)

>>> reading("N#CCC(N)=O")
0.0055

###

# reported_conditions: in 1,4-dioxane, 318.15 K
observed_property: solubility (mole fraction)

>>> reading("N#CCC(N)=O")
0.0407

###

# reported_conditions: in n-propanol, 313.15 K
observed_property: solubility (mole fraction)

>>> reading("N#CCC(N)=O")
0.0147
